test: activity coefficient (dimensionless); of the first substance listed, at infinite dilution; xn = mol fraction of the nth substance listed; settings: 333.15 K; 101 kPa; Liquid; dilutor technique; x1 = 0
recorded_endpoint: activity coefficient
Please respond with just the number, no unit label.

Exercise: Quick one: activity coefficient for CCCO [propan-1-ol] + CCn1cc[n+](C)c1.O=S(=O)([O-])O ?
Solution: 0.338

---

experiment: activity coefficient (dimensionless); of the first substance listed, at infinite dilution; xn = mol fraction of the nth substance listed; conditions: 323.15 K; 101 kPa; Liquid; dilutor technique; x1 = 0
recorded_endpoint: activity coefficient
Please respond with just the number, no unit label.

Example entries and their recorded answers appear below.
>  <compound>
CCC(C)O (stereo not drawn) [butan-2-ol] + CCn1cc[n+](C)c1.O=S(=O)([O-])O

>  <activity coefficient>
1.22

$$$$
>  <compound>
CCCO [propan-1-ol] + CCn1cc[n+](C)c1.O=S(=O)([O-])O

>  <activity coefficient>
0.431

$$$$
>  <compound>
CC(C)O [propan-2-ol] + CCOS(=O)(=O)[O-].CCn1cc[n+](C)c1

>  <activity coefficient>
1.25

$$$$
>  <compound>
CCO [ethanol] + CCOS(=O)(=O)[O-].CCn1cc[n+](C)c1

>  <activity coefficient>
0.703

$$$$
>  <compound>
CCCCO [butan-1-ol] + CCn1cc[n+](C)c1.O=S(=O)([O-])O

>  <activity coefficient>
0.758

$$$$

Exercise: Quick one: activity coefficient for CCO [ethanol] + CCn1cc[n+](C)c1.O=S(=O)([O-])O ?
Solution: 0.269

Exercise: Quick one: activity coefficient for CO [methanol] + CCn1cc[n+](C)c1.O=S(=O)([O-])O ?
Solution: 0.087

Exercise: Quick one: activity coefficient for CCCO [propan-1-ol] + CCn1cc[n+](C)c1.COS(=O)(=O)[O-] ?
Solution: 1.05
